Biological target: T1, FXIIa (Factor XIIa) (human, UniProt P00748 373-615, limits assumed)
T1 sequence (looked up): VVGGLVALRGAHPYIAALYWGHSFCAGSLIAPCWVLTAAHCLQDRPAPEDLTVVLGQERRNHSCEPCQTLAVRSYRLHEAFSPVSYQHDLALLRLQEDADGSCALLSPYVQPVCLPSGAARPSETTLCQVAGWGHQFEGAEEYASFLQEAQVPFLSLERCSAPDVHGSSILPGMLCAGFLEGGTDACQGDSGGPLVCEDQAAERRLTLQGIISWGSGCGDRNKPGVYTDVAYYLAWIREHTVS
Experiment: substrate-based activity assay
pKi: −log10 of the molar value. Positions of bridges follow the written chain, without caps; N, C: chain ends. No end group written: not given here.

[
  {
    "BINDER": "GCTRQYPC (linker 2-8 via 1,3‑dibromoacetone) [peptide 035 (lead KLK5 inhibitor)]",
    "pKi": 4.40
  }
]

Source listed as patent EP3766894A1.
